MEASURED_ON: Human Inducible Nitric Oxide Synthase (Homo sapiens)
TEST_DETAILS: Inhibition of human inducible nitric oxide synthase (formation of L-[3H]citrulline from L-[3H]arginine)
Assay type: biochemical
DETAILS: 50 μM inhibitor; 1 μM L-Arg, pH 7.5, room temperature, 30 minutes
Please mark y if the recorded inhibition at 50 µM is equal to or greater than 60%, and n if it falls below.

Answered cases to consult:
COMPOUND	LABEL_CLASS
Cc1ccnc(NC(=S)NCCC[C@H](N)C(=O)O)c1 [Example 15]	y
CCN(CC)S(=O)(=O)NC(=O)Nc1cc(C)ccn1 [Example 18]	y

inhibition at 50 µM >= 60% for Cc1cc(C)nc(NC(N)=S)c1 [Example 3, N-(2-(4,6-dimethylpyridyl))-thiourea] ? y
